system: biotinyl-Trp-oxazolone; assay: self-aminoacylation, catalytic enhancement (BWO) (fold over background); higher = more active; k-Seq, kA / k0A0; sequences stand for … in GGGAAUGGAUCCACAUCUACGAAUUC…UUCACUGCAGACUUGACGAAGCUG
This sample holds only a part of the variants without activity.
Give Satisfied when the value for self-aminoacylation is at least 5. Give Not satisfied when it is less.

>  <input.sequence>
AUUACUCUGGUCAUUGAGUGA [Fam2.1 aminoacylation ribozyme variant]

>  <cat>
Satisfied

$$$$
>  <input.sequence>
ACUACCUUGGUCAUCGAGUGA [Fam2.1 aminoacylation ribozyme variant]

>  <cat>
Satisfied

$$$$
>  <input.sequence>
AUUACCCCUGUCAUCGAGUGA [Fam2.1 aminoacylation ribozyme variant]

>  <cat>
Satisfied

$$$$
>  <input.sequence>
ACUCACCUAGGUCAACGGGUG [Fam2.2 aminoacylation ribozyme variant]

>  <cat>
Not satisfied

$$$$
>  <input.sequence>
CCACAGUUCAAGCACUCGGUC [Fam1B.1 aminoacylation ribozyme variant]

>  <cat>
Not satisfied

$$$$
>  <input.sequence>
AAUCACCUACGUCAUCGGGUG [Fam2.2 aminoacylation ribozyme variant]

>  <cat>
Satisfied

$$$$
>  <input.sequence>
GCACACUUCGAGCAAUCGGUC [Fam1B.1 aminoacylation ribozyme variant]

>  <cat>
Not satisfied

$$$$
